Source: the supplement of paper PMC10567573

B1: APBB1IP (parent)
chain: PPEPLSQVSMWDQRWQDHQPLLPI

- Variants of: B1
- assayInfo: protein stability index of a GFP-peptide fusion (GPS, HEK-293T) (PSI 1-6); higher = more stable;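 further: lentivirally expressed fusions sorted by FACS into six bins by GFP to DsRed ratio, PSI derived from sequencing read proportions per bin multiplied by bin number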
- assayConditions: c terminus: a fixed tail appended
quantityName: protein stability index
Give only the figure.

mutationSpec	protein stability index
P20D	3.33
P20C	2.95

*Q* For Q13I , what is its reported protein stability index?
*A* 2.72

*Q* For Q19I , what is its reported protein stability index?
*A* 2.47
